protocol text: AUC (0 to 24 hrs) in male Sprague-Dawley rat at 2 mg/kg, iv measured up to 24 hrs by LC/MS-MS analysis
Type: ADME, organism-based
Parameters: dose 2 mg/kg, time < 24 hr, route intravenous
experimental setup: in vivo

| test smiles | AUC(0-t) at 24 h / µM·h |
| --- | --- |
| Fc1ccc(/C=N/Nc2nc(-c3ccc(C(F)(F)F)cc3)cs2)cc1F | 155 |

###

protocol text: Tmax in female Sprague-Dawley rat at 2 mg/kg, iv measured up to 24 hrs by LC/MS-MS analysis
Type: ADME, organism-based
experimental setup: in vivo

| test smiles | Tmax (h) |
| --- | --- |
| Fc1ccc(/C=N/Nc2nc(-c3ccc(C(F)(F)F)cc3)cs2)cc1F | 2 |

###

protocol text: Volume of distribution in steady state in male Sprague-Dawley rat at 2 mg/kg, iv measured up to 24 hrs by LC/MS-MS analysis
Type: ADME, organism-based
experimental setup: in vivo, read-out: Vdss

| test smiles | Vd / L/kg |
| --- | --- |
| Fc1ccc(/C=N/Nc2nc(-c3ccc(C(F)(F)F)cc3)cs2)cc1F | 0.12 |

###

protocol text: Total plasma clearance in female Sprague-Dawley rat at 2 mg/kg, iv measured up to 24 hrs by LC/MS-MS analysis
Type: ADME, organism-based
experimental endpoint: clearance (mL/min/kg)

| test smiles | units text | test value |
| --- | --- | --- |
| Fc1ccc(/C=N/Nc2nc(-c3ccc(C(F)(F)F)cc3)cs2)cc1F | mL/min/kg | 0.667 |

###

protocol text: Volume of distribution in Sprague-Dawley rat at 2 mg/kg, iv measured up to 24 hrs by LC/MS-MS analysis
Format: ADME, organism-based
experimental setup: in vivo

| test smiles | Vd [L/kg] |
| --- | --- |
| Fc1ccc(/C=N/Nc2nc(-c3ccc(C(F)(F)F)cc3)cs2)cc1F | 0.67 |

###

protocol text: Tmax in male Sprague-Dawley rat at 2 mg/kg, iv measured up to 24 hrs by LC/MS-MS analysis
Format: ADME, organism-based
experimental setup: in vivo

| test smiles | units text | Tmax |
| --- | --- | --- |
| Fc1ccc(/C=N/Nc2nc(-c3ccc(C(F)(F)F)cc3)cs2)cc1F | h | 2 |

###

protocol text: MRT in male Sprague-Dawley rat at 10 mg/kg, po measured up to 24 hrs by LC/MS-MS analysis
Format: ADME, organism-based
experimental setup: in vivo

| test smiles | MRT [h] |
| --- | --- |
| Fc1ccc(/C=N/Nc2nc(-c3ccc(C(F)(F)F)cc3)cs2)cc1F | 1.83 |

###

protocol text: Oral bioavailability in male Sprague-Dawley rat at 10 mg/kg measured up to 24 hrs by LC/MS-MS analysis
Assay type: ADME, organism-based
experimental setup: in vivo

| test smiles | bioavailability |
| --- | --- |
| Fc1ccc(/C=N/Nc2nc(-c3ccc(C(F)(F)F)cc3)cs2)cc1F | 17.2% |

###

protocol text: Half life in male Sprague-Dawley rat at 2 mg/kg, iv measured up to 24 hrs by LC/MS-MS analysis
Assay type: ADME, organism-based
experimental setup: in vivo
experimental endpoint: half-life (h)

| test smiles | experimental endpoint | test value |
| --- | --- | --- |
| Fc1ccc(/C=N/Nc2nc(-c3ccc(C(F)(F)F)cc3)cs2)cc1F | half-life | 2.83 |
